Recorded values, source PubChem BioAssay AID849.

Tested on: Saccharomyces cerevisiae lifespan shortening, growth inhibition
Assay: yeast lifespan shortening compounds, dose response (AID 849);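 note: yeast growth read as optical density after two days at 30 degrees C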
Calls of active or inactive are those of the source. The rule behind the calls is not given here.
Your answer must be one of the following: active, inactive

# count of solved cases: 2
> print(dat)
                                test.smiles  category
1               Nc1c(Cl)ncnc1N/N=C/c1ccccn1    active
2  COc1cc(/C=C2\C(=O)ON=C2c2ccccc2)cc(OC)c1OC    active

Now look at this entry.
Input: What classification did `CCCn1c(CNc2ccccc2O)nc2ccccc21` end up with in this test?
Output: inactive

###

System: Saccharomyces cerevisiae lifespan shortening, growth inhibition
Experiment: yeast lifespan shortening compounds, dose response (AID 849);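 note: yeast growth read as optical density after two days at 30 degrees C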
Active and inactive are the calls of the source. The rule behind the calls is not given here.
Your answer must be one of the following: active, inactive

> print(dat)
                                   compound                             target.system  category
1          O=C(CC(=O)c1cc(Cl)ccc1O)c1ccccc1  Saccharomyces cerevisiae lifespan shortening, growth inhibition  inactive
2         Cc1nc2c(c(C)c1C#N)C(=O)c1ccccc1-2  Saccharomyces cerevisiae lifespan shortening, growth inhibition    active
3   O=[N+]([O-])c1ccc(O)c(/C=N/Nc2ccccn2)c1  Saccharomyces cerevisiae lifespan shortening, growth inhibition    active
4  CCCOC(=O)c1ccc(Oc2cn[nH]c2-c2ccc(OC)cc2O)cc1  Saccharomyces cerevisiae lifespan shortening, growth inhibition    active
5         O=C1C=C(c2ccccc2)C(=O)N1Nc1ccccc1  Saccharomyces cerevisiae lifespan shortening, growth inhibition    active

Input: What classification did `Clc1cccc(CN2COc3c(cc(Cl)c4cccnc34)C2)c1` end up with in this test?
Output: active

Input: Same for `Cc1ncc(CC(=O)n2cc(C(=O)c3cc(Cl)ccc3O)cn2)s1`
Output: active

###

Test system: Saccharomyces cerevisiae lifespan shortening, growth inhibition
Test: yeast lifespan shortening compounds, dose response (AID 849);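 note: yeast growth read as optical density after two days at 30 degrees C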
Calls of active or inactive are those of the source. How the calls were made is not given here.
Your answer must be one of the following: true = active, false = inactive

# count of solved cases: 5
> print(dat)
                                test.smiles                             target.system  category
1  O=C(OCn1ncc(Cl)c(Cl)c1=O)c1cccc(C(F)(F)F)c1  Saccharomyces cerevisiae lifespan shortening, growth inhibition     false
2  Cc1ccc(C)c(-n2nnnc2SCC(=O)Nc2cccc(-c3nnc4n3CCCCC4)c2)c1  Saccharomyces cerevisiae lifespan shortening, growth inhibition     false
3  CCc1cccc(C)c1NC(=S)NCc1ccc2[nH]c(C)cc2c1  Saccharomyces cerevisiae lifespan shortening, growth inhibition      true
4          O=C1CN(CC(=O)N2CCCCC2)c2ccccc2O1  Saccharomyces cerevisiae lifespan shortening, growth inhibition      true
5  Cc1nc2ccc(NC(=O)c3cc([N+](=O)[O-])cc([N+](=O)[O-])c3Cl)cc2s1  Saccharomyces cerevisiae lifespan shortening, growth inhibition      true

Input: What classification did `C=CCN1C(=O)/C(=C/c2cccs2)C(=O)NC1=S` end up with in this test?
Output: true

###

Test system: Saccharomyces cerevisiae lifespan shortening, growth inhibition
Experiment: yeast lifespan shortening compounds, dose response (AID 849);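 note: yeast growth read as optical density after two days at 30 degrees C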
Calls of active or inactive are those of the source. How the calls were made is not given here.
Your answer must be one of the following: active, inactive

# count of solved cases: 5
> print(dat)
                                test.smiles  category
1  Cc1ccc(S(=O)(=O)Nc2ccc(SC(F)F)cc2)c(C)c1  inactive
2                 Cc1ccc(N/N=C/c2cccnc2)cc1    active
3         Cc1oc(-c2ccc3c(c2)OCCO3)cc1C(=O)O    active
4      N/C(=N\OC(=O)c1ccc(Cl)cc1Cl)c1ccccc1  inactive
5  CCCn1c(C)cc(C(=O)COC(=O)c2ccc[nH]c2=O)c1C    active

Input: What classification did `O=C(O)c1cc(-c2ccc(/C=N/Nc3ccc(Cl)cc3)o2)ccc1Cl` end up with in this test?
Output: active

###

System: Saccharomyces cerevisiae lifespan shortening, growth inhibition
Assay: yeast lifespan shortening compounds, dose response (AID 849);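 note: yeast growth read as optical density after two days at 30 degrees C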
Activity calls are given as the source filed them. How the calls were made is not given here.
Your answer must be one of the following: active, inactive

> print(dat)
                                   molecule  category
1          CC(=O)N1N=C(c2ccc(Cl)cc2)OC1(C)C  inactive
2                 Cc1nc2ccc(C(=O)O)cc2[nH]1  inactive
3    N/C(Cc1ccc(Cl)c(Cl)c1)=N\OC(=O)c1cccs1  inactive
4  CC(C)N=c1scc(-c2ccco2)n1/N=C/c1ccc(O)c(O)c1    active
5                 CCCCC(=O)NNC(=S)NC(=O)CCC    active

Now look at this entry.
Input: What classification did `COc1cc(C(=O)NC(=S)NNC(=O)c2cnccn2)cc(OC)c1OC` end up with in this test?
Output: active

###

System: Saccharomyces cerevisiae lifespan shortening, growth inhibition
Test: yeast lifespan shortening compounds, dose response (AID 849);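 note: yeast growth read as optical density after two days at 30 degrees C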
Activity calls are given as the source filed them. How the calls were made is not given here.
Your answer must be one of the following: yes for active, no for inactive

Input: What classification did `Cc1cc(C)cc(NS(=O)(=O)c2cnc(Cl)c(Cl)c2)c1` end up with in this test?
Output: yes

Input: Same for `c1ccc2c(c1)C(=Nn1cnnc1)c1ccccc1-2`
Output: no

Input: Same for `O=C(OCn1ncc(Cl)c(Cl)c1=O)c1ccc(F)cc1`
Output: no

Input: Same for `Cc1cc(O)c(/C=N/Nc2ccc(Cl)cc2)c(=O)o1`
Output: yes

Input: Same for `Cc1ccc2nc(/C(C#N)=C\c3ccc([N+](=O)[O-])o3)[nH]c2c1`
Output: yes

Input: Same for `Clc1ccc(CCNc2nc3ccccc3s2)cc1`
Output: no

Input: Same for `CCSc1ncc(/C=N/Nc2ccc(Cl)cc2)n1C`
Output: yes

Input: Same for COCC(C)OC(=O)/C(C#N)=C\c1coc2ccc(C)cc2c1=O (stereo not drawn)
Output: no

Input: Same for `C=CCn1c(C)cc(C(=O)CSc2nnc(NCc3ccccc3)s2)c1C`
Output: no

Input: Same for `CCOC(=O)C(=NCCCN(C)C)NNc1ccc(Br)cc1`
Output: yes

###

System: Saccharomyces cerevisiae lifespan shortening, growth inhibition
Experiment: yeast lifespan shortening compounds, dose response (AID 849);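 note: yeast growth read as optical density after two days at 30 degrees C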
Calls of active or inactive are those of the source. No rule for the calls is given here.
endpoint_name: IC50

> print(dat)
                                   molecule                             target.system  endpoint.name           meas.value
1      N/C(Cc1ccc(Cl)cc1Cl)=N\OC(=O)c1cccs1  Saccharomyces cerevisiae lifespan shortening, growth inhibition           IC50              0.78 µM
2               CCCCSc1nc(C)c(C(C)=O)cc1C#N  Saccharomyces cerevisiae lifespan shortening, growth inhibition           IC50  > 100 µM (inactive)
3     Cc1ccccc1OCCCN1C(=O)C(=O)c2cccc(C)c21  Saccharomyces cerevisiae lifespan shortening, growth inhibition           IC50  > 100 µM (inactive)
4  COc1ccc(-c2n[nH]c(C(F)(F)F)c2-c2cc3ccccc3o2)c(O)c1  Saccharomyces cerevisiae lifespan shortening, growth inhibition           IC50              26.1 µM
5  O=C(c1ccc(Cl)cc1)c1c[nH]c(C(=O)C(Cl)(Cl)Cl)c1  Saccharomyces cerevisiae lifespan shortening, growth inhibition           IC50              37.8 µM

Field: IC50. Fill in for each record below.
1. Cc1cc2c(cc(C(=O)O)n2C)s1
2. Clc1ccc2nnnc(-c3ccccc3)c2c1
3. C=CCC1c2cccc(C(=O)O)c2C(=O)N1c1cccc(C)c1 (configuration not stated)
4. O=C1CCN2C=Nc3cccc4ccc1c2c34

Output:
36.5 µM
38.8 µM
2.79 µM
32.9 µM

Field: IC50. Fill in for each record below.
1. COc1ccc2c(C)nc(Nc3nc(C)c(C)c(=O)[nH]3)nc2c1
2. COCCN1CSC(=S)N(Cc2ccco2)C1
3. O=c1cc(-c2ccccc2)n(S(=O)(=O)c2ccccc2)o1
4. CCc1cc(-c2n[nH]c(C)c2Oc2ccc(C(C)C)cc2)c(O)cc1O

Output:
["15 µM", "20.1 µM", "39.8 µM", "31.4 µM"]

###

Test system: Saccharomyces cerevisiae lifespan shortening, growth inhibition
Experiment: yeast lifespan shortening compounds, dose response (AID 849);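 note: yeast growth read as optical density after two days at 30 degrees C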
The source made the active and inactive calls. The rule behind the calls is not given here.
Your answer must be one of the following: active, inactive

Input: What classification did `Cc1cc(N2CCN(c3cccc(C)c3C)CC2)nc(-c2ccccc2)n1` end up with in this test?
Output: active

Input: Same for `O=C(Nc1cccc(N=Cc2cc(Cl)cc(Br)c2O)c1)c1ccco1`
Output: inactive

Input: Same for `NC(=O)c1ccc(N=Cc2ccc([N+](=O)[O-])s2)cc1`
Output: active

Input: Same for CC(C)(C)C(O)C(Oc1ccc(Cl)cc1)n1cncn1 (configuration not stated)
Output: active

Input: Same for `Cc1cccc(OCCCOc2cccc3cccnc23)c1C`
Output: active

Input: Same for `Nc1c(C(=O)NCCc2ccccc2)c2nc3ccccc3nc2n1CCN1CCOCC1`
Output: active
